target: AKT1 E17K (Homo sapiens, UniProt P31749, E17K); test: Live cell AKT1 E17K target engagement by NanoBRET competitive probe displacement; conditions: HEK293 cells transfected with kinase-NanoLuciferase fusion, 2 h at 37° C.
Sequence (P31749 whole entry E17K, the tested form may be a part): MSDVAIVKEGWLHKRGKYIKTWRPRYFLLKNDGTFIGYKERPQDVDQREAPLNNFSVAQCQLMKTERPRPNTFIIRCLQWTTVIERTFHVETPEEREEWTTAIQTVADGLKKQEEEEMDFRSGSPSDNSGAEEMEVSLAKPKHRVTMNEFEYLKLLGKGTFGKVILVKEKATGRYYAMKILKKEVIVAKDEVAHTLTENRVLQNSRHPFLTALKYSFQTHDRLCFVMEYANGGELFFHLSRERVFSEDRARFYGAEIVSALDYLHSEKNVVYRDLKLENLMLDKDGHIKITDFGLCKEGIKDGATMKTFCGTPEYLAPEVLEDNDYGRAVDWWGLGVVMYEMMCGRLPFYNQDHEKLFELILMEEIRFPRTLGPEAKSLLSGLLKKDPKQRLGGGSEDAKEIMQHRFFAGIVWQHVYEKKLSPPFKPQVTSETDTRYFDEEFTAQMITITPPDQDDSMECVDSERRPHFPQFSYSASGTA
Mark each entry 1 if its IC50 sits below 30 nM, and -1 for all others.

>  <compound>
C=CC(=O)N1CCC(N[C@H]2CCc3cc(-n4c(-c5cccnc5N)nc5ccc(-n6cccn6)nc54)ccc32)C[C@@H]1C(F)F (single isomer, unassigned) [Example 212]

>  <className>
1

$$$$
>  <compound>
C=CC(=O)Nc1ccccc1C(=O)N[C@H]1CCc2cc(-n3c(-c4cccnc4N)nc4ccc(-n5nccn5)nc43)ccc21 [Example 19]

>  <className>
1

$$$$
>  <compound>
C=CC(=O)N1CCC(N[C@H]2CCc3cc(-n4c(-c5cccnc5N)nc5ccc(-n6cccn6)nc54)ccc32)C(F)(F)C1 (single isomer, unassigned) [Example 55]

>  <className>
-1

$$$$
>  <compound>
C=CC(=O)N1CC2COCC(C1)C2N[C@H]1CCc2cc(-n3c(-c4cccnc4N)nc4ccc(-n5cccn5)nc43)ccc21 (mixture of isomers) [Example 64]

>  <className>
-1

$$$$
>  <compound>
C=CC(=O)N1CCC(N[C@@H]2c3ccc(-n4c(-c5cccnc5N)nc5ccc(-n6ccc(F)n6)nc54)cc3CC2F)C[C@@H]1C (single isomer, unassigned) [Example 271]

>  <className>
1

$$$$
>  <compound>
C=CC(=O)N1CCC(N[C@H]2CCc3cc(-n4c(-c5cccnc5N)nc5ccc(-c6ncc(C)o6)nc54)ccc32)CC1 [Example 255]

>  <className>
-1

$$$$
>  <compound>
C=CC(=O)N1CCC(N[C@H]2CCc3cc(-n4c(C5CC5)nc5ccc(-n6cccn6)nc54)ccc32)CC1 [Example 248]

>  <className>
-1

$$$$
>  <compound>
C=CC(=O)N1CCC(N[C@H]2CCc3cc(-n4c(-c5cccnc5N)nc5ccc(-n6cccn6)nc54)ccc32)CC12CCC2 (single isomer, unassigned) [Example 94]

>  <className>
-1

$$$$

Lookup: Answer whether the compound C=CC(=O)N1C[C@@H]2C[C@H]1CC2N[C@H]1CCc2cc(-n3c(-c4cccnc4N)nc4ccc(-n5cccn5)nc43)ccc21 (single isomer, unassigned) [Example 136] has IC50 strictly less than 30 nM
Found: -1

Lookup: Lab note: IC50 threshold 30 nM. Does this compound come in strictly under it? C=CC(=O)N1CCC(N[C@@H]2c3ccc(-n4c(-c5cccnc5N)nc5ccc(-n6cccn6)nc54)cc3CC2OC)CC1 (single isomer, unassigned) [Example 163]
Found: -1

Lookup: IC50 strictly < 30 nM for this compound? C=CC(=O)N1CCC(N[C@H]2CCc3cc(-n4c(-c5cccnc5N)nc5ccc(C(F)(F)F)nc54)ccc32)CC1 [Example 348]
Found: -1

Lookup: Does the reported IC50 of the following compound sit strictly below 30 nM? C=CC(=O)NC1CCN(C2CCc3cc(-n4c(-c5cccnc5N)nc5ccc(-n6cccn6)nc54)ccc32)CC1 (single isomer, unassigned) [Example 193]
Found: 1

----------
target: AKT2 (Homo sapiens, UniProt P31751); test: Live cell AKT2 target engagement by NanoBRET competitive probe displacement; conditions: HEK293 cells transfected with kinase-NanoLuciferase fusion, 2 h at 37° C.
Sequence (P31751 whole entry, the tested form may be a part): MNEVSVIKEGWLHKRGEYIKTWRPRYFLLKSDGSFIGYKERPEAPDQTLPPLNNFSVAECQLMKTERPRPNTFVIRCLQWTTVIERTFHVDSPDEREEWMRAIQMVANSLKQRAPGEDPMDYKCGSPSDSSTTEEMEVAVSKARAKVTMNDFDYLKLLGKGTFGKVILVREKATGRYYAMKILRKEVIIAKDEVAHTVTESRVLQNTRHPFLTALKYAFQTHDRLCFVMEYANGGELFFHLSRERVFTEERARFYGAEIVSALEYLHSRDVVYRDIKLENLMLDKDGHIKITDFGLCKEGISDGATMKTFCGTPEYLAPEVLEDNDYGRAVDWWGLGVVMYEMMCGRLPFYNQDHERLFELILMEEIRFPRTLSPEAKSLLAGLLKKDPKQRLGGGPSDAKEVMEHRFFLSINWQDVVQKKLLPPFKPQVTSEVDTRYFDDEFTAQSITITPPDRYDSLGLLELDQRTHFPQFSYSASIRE
Overview of reported IC50 across a group of compounds:
The reply should be a number in nM, with the unit left off.

Take a look at these entries with their results.
>  <compound>
C=C(F)C(=O)N1CCc2c(C(=O)N[C@H]3CCc4cc(-n5c(-c6cccnc6N)nc6ccc(-n7cccn7)nc65)ccc43)cccc21

>  <resultUnits>
nM

>  <IC50>
208

$$$$
>  <compound>
C=CC(=O)N1CCC(N[C@H]2CCc3cc(-n4c(-c5cccnc5N)nc5ccc(-n6cccn6)nc54)ccc32)C(C)(F)C1 (single isomer, unassigned) [Example 307]

>  <resultUnits>
nM

>  <IC50>
106

$$$$

Note: attention shifts to another entry.
Record summary for C=CC(=O)N1CCC(N[C@@H]2c3ccc(-n4c(-c5cccnc5N)nc5ccc(-n6cccn6)nc54)cc3C[C@@H]2F)CC1 : reported IC50 = 232

----------
Readings of log10 of IC50 for the listed molecules
target: AKT1 E17K (Homo sapiens, UniProt P31749, E17K); assay: Live cell AKT1 E17K target engagement by NanoBRET competitive probe displacement; conditions: HEK293 cells transfected with kinase-NanoLuciferase fusion, 2 h at 37° C.
Transform log10 | Measure IC50 | Unit µM

>  <molecule>
C=C(F)C(=O)N1CCC2(CC1)CC(N[C@H]1CCc3cc(-n4c(-c5cccnc5N)nc5ccc(-n6cccn6)nc54)ccc31)C2 [Example 84]

>  <log10 of IC50>
-0.58

$$$$

log10 of IC50 recorded for this molecule, C=CC(=O)N1CCC(N[C@@H]2c3ccc(-n4c(-c5cccnc5N)nc5ccc(-n6cccn6)nc54)cc3CC2F)CC1C(F)F (single isomer, unassigned) [Example 301] , is -2.05

Noted for C=CC(=O)N1CCC(N[C@H]2CC(F)c3cc(-n4c(-c5cccnc5N)nc5ccc(-n6cccn6)nc54)ccc32)CC1 (single isomer, unassigned) [Example 233] : its log10 of IC50 reads -1.84

----------
biological target: AKT1 E17K (Homo sapiens, UniProt P31749, E17K); experiment: Live cell AKT1 E17K target engagement by NanoBRET competitive probe displacement; conditions: HEK293 cells transfected with kinase-NanoLuciferase fusion, 2 h at 37° C.
Measured pIC50 by item
pIC50 here: minus log base 10 of the concentration, concentration in moles per litre.

Recorded results for 6 compounds are shown here.
>  <compound>
C=CC(=O)N1CCC(N[C@H]2CCc3cc(-n4c(-c5cccnc5N)nc5ccc(C6COC6)nc54)ccc32)CC1 [Example 279]

>  <measurementTarget>
AKT1 E17K (Homo sapiens, UniProt P31749, E17K)

>  <pIC50>
6.77

$$$$
>  <compound>
C=CC(=O)N1CCC(N[C@H]2CCc3cc(-n4c(-c5cccnc5N)nc5ccc(-c6ccccc6)nc54)ccc32)CC1 [Example 209]

>  <measurementTarget>
AKT1 E17K (Homo sapiens, UniProt P31749, E17K)

>  <pIC50>
8.64

$$$$
>  <compound>
C=CC(=O)N1CCC(N[C@@H]2c3ccc(-n4c(-c5cccnc5N)nc5ccc(-n6ccc(F)n6)nc54)cc3CC2F)C[C@H]1C (single isomer, unassigned) [Example 277]

>  <measurementTarget>
AKT1 E17K (Homo sapiens, UniProt P31749, E17K)

>  <pIC50>
7.63

$$$$
>  <compound>
C=CC(=O)N1CCC(N[C@H]2CCc3cc(-n4c(-c5ccccc5C(F)F)nc5ccc(-n6cccn6)nc54)ccc32)CC1 [Example 285]

>  <measurementTarget>
AKT1 E17K (Homo sapiens, UniProt P31749, E17K)

>  <pIC50>
6.22

$$$$
>  <compound>
C=CC(=O)N1CCC(N[C@H]2CCc3cc(-n4c(-c5cccnc5N)nc5ccc(N6CCCOCC6)nc54)ccc32)CC1 [Example 205]

>  <measurementTarget>
AKT1 E17K (Homo sapiens, UniProt P31749, E17K)

>  <pIC50>
6.95

$$$$
>  <compound>
C=CC(=O)N1CCC(N[C@@H]2c3ccc(-n4c(-c5cccnc5N)nc5ccc(-n6ccc(C7CC7)n6)nc54)cc3CC2F)CC1 (single isomer, unassigned) [Example 297]

>  <measurementTarget>
AKT1 E17K (Homo sapiens, UniProt P31749, E17K)

>  <pIC50>
7.62

$$$$

Value of measured pIC50 for the entry C=CC(=O)N1CCC(N[C@@H]2c3ccc(-n4c(-c5cccnc5N)nc5ccc(-n6cccn6)nc54)cc3CC2F)C[C@H]1C (single isomer, unassigned) [Example 144] : 7.13

// pIC50 value for C=CC(=O)N1CCN(N(C)C2CCc3cc(-n4c(-c5cccnc5N)nc5ccc(-n6cccn6)nc54)ccc32)CC1 (single isomer, unassigned) [Example 180] : 7.73

The compound identified as C=CC(=O)Nc1cc(O)ccc1C(=O)N[C@H]1CCc2cc(-n3c(-c4cccnc4N)nc4ccc(-n5cccn5)nc43)ccc21 [Example 70] registered its pIC50 at 6.54

response.value for C=CC(=O)N1CCC(N[C@H]2CCc3cc(-n4c(-c5cccnc5N)nc5ccc(-n6cccn6)nc54)ccc32)C(C)C1 (single isomer, unassigned) [Example 100] (field: pIC50) = 7.27

// field: pIC50; key: C=CC(=O)N1CCC(NC2c3ccc(-n4c(-c5cccnc5N)nc5ccc(-n6ccc(C7CC7)n6)nc54)cc3CC2F)CC1C(F)F (single isomer, unassigned) [Example 333] ; value = 8.36

----------
molecular target: AKT1 WT (Homo sapiens, UniProt P31749); experiment: Live cell AKT1 WT target engagement by NanoBRET competitive probe displacement; conditions: HEK293 cells transfected with kinase-NanoLuciferase fusion, 2 h at 37° C.
Sequence (P31749 whole entry, the tested form may be a part): as the sequence (P31749 whole entry E17K, the tested form may be a part) above, with K17E counted along it
Recorded pIC50, one value per entry.
Convention used: pIC50 is expressed as -log10 of the molar concentration.

Examples with their reported pIC50 follow.
>  <compound>
C=CC(=O)NC1CCN(C2CCc3cc(-n4c(-c5cccnc5N)nc5ccc(-n6cccn6)nc54)ccc32)CC1 (single isomer, unassigned)

>  <reportedValue>
7.15

$$$$
>  <compound>
C=CC(=O)N1CCC(N[C@H]2CCc3cc(-n4c(-c5cccnc5N)nc5ccc(-c6cnccn6)nc54)ccc32)CC1

>  <reportedValue>
7.63

$$$$
>  <compound>
C=CC(=O)N1C[C@H]2C[C@@H](C1)C2N[C@H]1CCc2cc(-n3c(-c4cccnc4N)nc4ccc(-n5cccn5)nc43)ccc21 (single isomer, unassigned) [Example 59]

>  <reportedValue>
7.35

$$$$
>  <compound>
C=CC(=O)N1CC2(CCC(N[C@H]3CCc4cc(-n5c(-c6cccnc6N)nc6ccc(-n7cccn7)nc65)ccc43)CC2)C1

>  <reportedValue>
7.88

$$$$
>  <compound>
C=CC(=O)N1CCC(N[C@@H]2c3ccc(-n4c(-c5cccnc5N)nc5ccc(-n6ccc(F)n6)nc54)cc3CC2F)C[C@@H]1C (single isomer, unassigned) [Example 270]

>  <reportedValue>
6.79

$$$$

# input for lookup
Quick note, pIC50 for C=CC(=O)N1CCC(N[C@@H]2c3ccc(-n4c(-c5cccnc5N)nc5ccc(-n6ccc(OC)n6)nc54)cc3CC2F)CC1 (single isomer, unassigned) [Example 286] landed at 6.56

Origin of measurements: patent US12570655B2
